# TARGET SYSTEM: α₂-adrenergic receptor
# PROTOCOL TEXT: α₂-adrenergic receptor binding assay with [³H] clonidine, rat brain cortex membranes
# APPLIED CONDITIONS: 1 nM [³H] clonidine, 10 mM MgCl₂, rat brain cortex membranes, pH 7.4
READOUT: Ki (µM)
Note: unit µM is implicit; provide only the numeric part.

Solved cases (3 shown):
> print(dat)
                                   compound  observed.value
1  COc1cc2c(cc1OC)C1=NC(CN3CCN(c4ccccc4)CC3)CN1C(=O)N2 (centres unmarked)            1.69
2  O=C1Nc2ccccc2C2=NC(CN3CCC(Cc4ccccc4)CC3)CN12 (centres unmarked)            5.01
3  O=C1Nc2ccccc2C2=NC(CN3CCN(c4ccccc4Cl)CC3)CN12 (centres unmarked)            3.17

Moving on to the next compound.
Ask: Entry COc1ccccc1N1CCN(CC2CN3C(=O)Nc4ccccc4C3=N2)CC1 (centres unmarked) has what Ki?
Result: 3.45

Entry source: patent EP0594877A1
